Consider the following molecules; for each one, report its IC50.
biological target: Human TRPC6 (Homo sapiens); construct: expressed in transfected cells; assay: Evaluation of TRPC6 channel inhibitory activity (1), FLIPR Calcium 5 Assay Kit, OAG stimulation (Compound Nos. 1-1293); type: cell-based; settings: Human TRPC6 stably-expressing cells, OAG 30 μM, FLIPR Calcium 5 Assay Kit; read-out: Inhibitory activity (pIC50 class) (converted)
Sequence (Q9Y210 whole entry): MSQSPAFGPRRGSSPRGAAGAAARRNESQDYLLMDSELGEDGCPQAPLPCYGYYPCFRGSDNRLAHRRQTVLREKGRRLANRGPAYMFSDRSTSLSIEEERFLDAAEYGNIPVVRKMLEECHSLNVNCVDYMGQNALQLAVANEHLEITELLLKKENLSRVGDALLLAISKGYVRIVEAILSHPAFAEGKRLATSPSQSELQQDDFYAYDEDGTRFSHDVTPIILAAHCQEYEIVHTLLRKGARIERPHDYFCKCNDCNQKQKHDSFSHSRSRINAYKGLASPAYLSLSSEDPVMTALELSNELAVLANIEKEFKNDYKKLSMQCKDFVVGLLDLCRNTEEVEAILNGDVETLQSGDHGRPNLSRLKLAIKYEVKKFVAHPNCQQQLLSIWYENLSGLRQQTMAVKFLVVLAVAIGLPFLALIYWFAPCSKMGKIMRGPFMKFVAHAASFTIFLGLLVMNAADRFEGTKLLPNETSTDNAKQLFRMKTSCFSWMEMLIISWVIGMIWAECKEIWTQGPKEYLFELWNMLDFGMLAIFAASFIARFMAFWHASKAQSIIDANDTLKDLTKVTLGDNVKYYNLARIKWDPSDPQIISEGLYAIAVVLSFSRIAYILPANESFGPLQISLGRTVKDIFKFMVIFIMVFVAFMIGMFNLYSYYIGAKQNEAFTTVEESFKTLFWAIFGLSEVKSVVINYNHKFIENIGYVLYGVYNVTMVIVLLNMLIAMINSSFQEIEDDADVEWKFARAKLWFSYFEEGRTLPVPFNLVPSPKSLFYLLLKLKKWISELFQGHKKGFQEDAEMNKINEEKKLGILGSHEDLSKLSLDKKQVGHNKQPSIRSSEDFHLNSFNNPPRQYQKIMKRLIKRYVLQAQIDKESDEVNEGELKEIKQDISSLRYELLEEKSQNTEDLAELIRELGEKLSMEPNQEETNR

INPUT: GET /values?readout=IC50&item= Cn1nc(-c2ccnn2C)cc1Oc1cc(C#N)ccc1-c1ncc(CN)cn1
OUTPUT: < 10 nM

INPUT: Also N#Cc1ccc(-c2ccc(CCN)cn2)c(Cn2cnc(-c3ccccn3)c2)c1 ?
OUTPUT: > 1000 nM

INPUT: Also Cc1cc(Oc2cc(C#N)ccc2-c2ncc(CCN)cn2)cc(N2CCOCC2)n1 ?
OUTPUT: < 10 nM

INPUT: Also CC(C)(C)n1nc(C2CC2)cc1Oc1cc(C#N)ccc1-c1ncc(CCN)cn1 ?
OUTPUT: 10 to 1000 nM

INPUT: Also Cn1nc(C2CC2)cc1Oc1cc(C#N)ccc1-c1ccc(CN)c(C(=O)O)n1 ?
OUTPUT: 10 to 1000 nM

INPUT: Also Cn1nc(-c2cccnc2)cc1Oc1cc(C#N)ccc1-c1ccc(CCN)cn1 ?
OUTPUT: < 10 nM

INPUT: Also Cn1nc(N2CC(F)(F)C(F)(F)C2)cc1Oc1cc(C#N)ccc1-c1ncc(CCN)cn1 ?
OUTPUT: < 10 nM

INPUT: Also Cc1nc(Oc2cc(C#N)ccc2-c2ncc([C@H](O)CN)cn2)cc(N2CCOC(C)(C)C2)n1 ?
OUTPUT: 10 to 1000 nM

INPUT: Also Cc1nc(Oc2cc(C#N)ccc2-c2ccc(CCN)nc2)cc(-c2ccccc2)n1 ?
OUTPUT: 10 to 1000 nM

INPUT: Also Cn1nc(C(F)(F)F)cc1Oc1cc(C#N)ccc1-c1ncc(CN)cn1 ?
OUTPUT: < 10 nM

INPUT: Also Cc1nc(Oc2cc(C#N)ccc2-c2nc([C@@H](O)CN)cs2)cc(-c2ccccc2)n1 ?
OUTPUT: 10 to 1000 nM

INPUT: Also Cn1nc(-c2ccccc2)cc1Oc1cc(C#N)ccc1-c1ncc2c(n1)CCNC2 ?
OUTPUT: 10 to 1000 nM

INPUT: Also Cn1nc(-c2ccccc2)cc1Oc1cc(C#N)ccc1-c1cnc(CN)cn1 ?
OUTPUT: 10 to 1000 nM

INPUT: Also CC(C)n1cc(Oc2cc(F)ccc2-c2ncc(CCN)cn2)cn1 ?
OUTPUT: 10 to 1000 nM

INPUT: Also N#Cc1ccc(-c2ccc(CCN)cn2)c(Oc2nnc(C3CC3)s2)c1 ?
OUTPUT: < 10 nM

INPUT: Also Cn1nc(-c2ccc(Cl)cc2)cc1Oc1cc(C#N)ccc1-c1ccc([C@@H](O)CN)cn1 ?
OUTPUT: 10 to 1000 nM

INPUT: Also Cc1nc(Oc2cc(C#N)ccc2-c2ccc(CCN)nc2)cc(-c2cccc(F)c2)n1 ?
OUTPUT: 10 to 1000 nM

INPUT: Also Cc1nc(Oc2cc(C#N)ccc2-c2ccc3c(c2)CCC3N)cc(N2CCOCC2)n1 (centres unmarked) ?
OUTPUT: 10 to 1000 nM

INPUT: Also Cc1nc(Oc2cc(C#N)ccc2-c2ncc(CCN)cn2)cc(OC2CC2)n1 ?
OUTPUT: 10 to 1000 nM

INPUT: Also Cc1nc(Oc2cc(C#N)ccc2-c2ccc(CCN)cc2)cc(N2CCOCC2)n1 ?
OUTPUT: < 10 nM

INPUT: Also N#Cc1ccc(-c2ncc(CN)cn2)c(Sc2cnnc(N3CCCC3)c2)c1 ?
OUTPUT: 10 to 1000 nM

INPUT: Also Cc1nn(CC2CC2)cc1C(=O)c1cc(C#N)ccc1-c1ncc(CCN)cn1 ?
OUTPUT: < 10 nM

INPUT: Also Cn1nc(C2CC2)cc1Oc1cc(C#N)ccc1-c1ccc(CC2(N)COC2)cn1 ?
OUTPUT: < 10 nM

INPUT: Also N#Cc1ccc(-n2cc(C(O)CN)cn2)c(Oc2cc(N3CCOCC3)nc(C(F)(F)F)n2)c1 (centres unmarked) ?
OUTPUT: 10 to 1000 nM

INPUT: Also COCc1nn(C)c(Oc2cc(C#N)ccc2-c2ccc(CCN)cc2)c1C ?
OUTPUT: > 1000 nM

INPUT: Also Cc1nc(Oc2cc(C#N)ccc2-c2ncc(CN)cn2)cc(N(C)C)n1 ?
OUTPUT: > 1000 nM

INPUT: Also Cc1nnc(N2CCCCC2)cc1Oc1cc(C#N)ccc1-c1ncc(CN)cn1 ?
OUTPUT: 10 to 1000 nM

INPUT: Also Cn1nc(-c2ccccn2)cc1Oc1cc(C#N)cnc1-c1ccc(CN)cn1 ?
OUTPUT: > 1000 nM

INPUT: Also Cn1nc(-c2ccccc2)cc1Oc1cc(C#N)ccc1-c1ccc2c(N)noc2c1 ?
OUTPUT: > 1000 nM

These entries and their values trace back to patent US20230167073A1.
